System: OVCAR-3
Experiment: NCI tumour cell line growth inhibition, 48 h
Calls of active or inactive are those of the source. Cut-off read from the data, not from the text of the source: active = GI50 up to about 1.1 µM and inactive = higher. Residues, ends and D or L forms follow the SMILES beside them. *: point of attachment. Boc = CC(C)(C)OC(=O)*; OBn = c1ccc(CO*)cc1
Assignment: determine reported GI50 for the given compounds.

Consider CCOC(=O)COS(=O)(=O)C(F)(F)F . Its measured GI50 is > 100 µM (inactive)

According to the records, this compound CCN(CC)C(=O)COc1cc2c(O)c3c(O)c(C)c4c(c13)C(=O)C(C)(OC=CC(OC)C(C)C(OC(C)=O)C(C)C(O)C(C)C(O)C(C)C=CC=C(C)C(=O)N2)O4 (centres undefined) displays GI50 of > 100 µM (inactive)

Form: compound = CC(C)CC(NC(=O)OC(C)(C)C)C(=O)NC(CC(=O)OCc1ccccc1)C(=O)OCc1ccccc1 (stereo not drawn) (Boc-Leu-Asp(OBn)-OBn; configuration not given here) ; GI50 = 22.4 µM (inactive)

The reported GI50 of the compound O=C1c2ccccc2C(=O)N1n1c(Cc2ccccc2)n[nH]c1=O was > 100 µM (inactive)

---

Test system: NCI-H23
Test: NCI tumour cell line growth inhibition, 48 h
Calls of active or inactive are those of the source. No stated cut-off is given here; in the data, active = GI50 up to about 1.1 µM and inactive = higher.
For each of the compounds below, state its GI50.

For this compound ( C=CCC1=C(C)C[C@@H]2CCC(=O)C=C12 ), measured GI50 is > 100 µM (inactive)

For Cc1nc2c(=O)n(C)ncc2[nH]1 the compound record lists GI50 as > 100 µM (inactive)

Query COc1c2c(cc3c1OCO3)C13C=CC(OC)CC1N(CC3)C2.[O-][Cl+3]([O-])([O-])O (stereo not given) yields GI50 of > 100 µM (inactive)

Data point: O=c1c(-c2ccccc2)c(SCCCN2CCN(c3cccc(Cl)c3)CC2)n(-c2ccccc2)c(=S)n1-c1ccccc1 ; GI50 = > 100 µM (inactive)

Lab book: GI50 of C/C(=N\NC(=S)N1CCCCC1)c1nc2cccnc2[nH]1 noted as 13.6 µM (inactive)

Input CCOC(=O)CCc1cn2cc(Br)nc(OC)c2n1 . Output GI50: 67.5 µM (inactive)

Lab note: measured GI50 of O=c1c2cc([N+](=O)[O-])ccc2n2n1CCCC2 was > 100 µM (inactive)

Given item O=C(CSc1nnc(-c2ccccn2)s1)N/N=C/c1ccc([N+](=O)[O-])cc1 , the value recorded as its GI50 is > 100 µM (inactive)

get_value(item= N#CC(/C(=N/NC(=N)N)C(=O)Nc1ccccc1[N+](=O)[O-])c1nc(-c2ccc([N+](=O)[O-])cc2)cs1 (stereo not given) , readout=GI50) returns > 100 µM (inactive)

Entry under test: COc1ncc(C#CC(=O)c2ccccc2OC)c(OC)n1 . Its GI50 was 2.73 µM (inactive)

---

Could you please report measured GI50 for the items listed next?
Tested on: PC-3
Test: NCI tumour cell line growth inhibition, 48 h
Activity calls are given as the source filed them. Rule as the data show it: active = GI50 up to about 1.1 µM and inactive = higher.

compound CCN1C[C@]2(C)CC[C@H](OCc3ccccc3)C34C5C[C@@H]6CC[C@](O)(C(C[C@@H]32)C14)C5[C@H]6OCc1ccccc1 (some centres undefined) , GI50 observed: 21.7 µM (inactive)

The compound listed as O=c1c2cc([N+](=O)[O-])cnc2sn1-c1ccc(Br)cc1 shows GI50 equal to 33.7 µM (inactive)

Lab note: CC(=O)NC1C(OCc2ccccc2)OC(CO)C(O)C1OCC(=O)N[C@@H](C)C(=O)N[C@H](CCC(=O)NCCCCNc1c2ccccc2nc2cccc([N+](=O)[O-])c12)C(N)=O (some centres undefined) gave GI50 of 1.24 µM (inactive)

Memo: N#C/C(=C\c1cc(Br)c(O)c(Br)c1)c1cccnc1 , reported GI50: 22 µM (inactive)

---

Tested on: CCRF-CEM
Assay: NCI tumour cell line growth inhibition, 48 h
Activity calls are given as the source filed them. Cut-off read from the data, not from the text of the source: active = GI50 up to about 1.1 µM and inactive = higher. Residues, ends and D or L forms follow the SMILES beside them. *: point of attachment. Boc = CC(C)(C)OC(=O)*; OBn = c1ccc(CO*)cc1
Please reply with one of these outcomes: y for active, n for inactive

Called result for Cc1ccc(-c2cc(=O)c3cc(C)c(C)c(C(=O)O)c3o2)cc1N
n

Recorded call for CC(=O)NC1C(OCc2ccccc2)OC(CO)C(O)C1OCC(=O)N[C@@H](C)C(=O)N[C@H](CCC(=O)NCCCCNc1c2ccccc2nc2cccc([N+](=O)[O-])c12)C(N)=O (stereo partly specified) ?
n

Lab log entry: O=C(NO)c1ccc(OCc2cccc(Cl)c2)cc1 — outcome as called in the assay?
n

Field: outcome | Entry: CC1=C(Oc2ccccc2)C(CCC(=O)O)c2c(O)cc(Cl)c(O)c21 (stereo unspecified)
n

In this assay, the call recorded for Cc1cc(N(CCC#N)CCC#N)ccc1/C=C(\NC(=O)/C=C/c1ccccc1)NC(=O)Nc1ccccc1C was what?
n

Returns: the outcome recorded for O=C1c2ccccc2/C(=N\c2ccc3ccccc3c2)C1(C1=C(c2ccccc2)/C(=N/c2ccc3ccccc3c2)c2ccccc21)c1ccccc1 (stereo unspecified) in this assay.
n

Which result was noted for this molecule in the test: CC(C)CC(NC(=O)OC(C)(C)C)C(=O)NC(CC(=O)OCc1ccccc1)C(=O)OCc1ccccc1 (stereo not drawn) (Boc-Leu-Asp(OBn)-OBn; configuration not given here)
n

So what was the verdict on c1ccc(NN=C(c2ccccn2)c2ccccn2)nc1 in this test?
y

Write down the call the test reported for this molecule. Item: CCOC(=O)C(NC(=O)c1ccccc1)(Nc1ccc(S(=O)(=O)Nc2cc(C)on2)cc1)C(F)(F)F (stereo unspecified)
n

In this assay, the call recorded for CN(C)CCNC(=O)c1cccc2nc3c(ccc4ccccc43)nc12 was what?
n

Could you check what this test reported for C/C(=N\NC(=S)N1CCC(N2CCCCC2)CC1)c1ccccn1 ?
y

Tell me the recorded outcome of this test for CC(=O)Oc1c(C)cc2c(c1C)C(C)CN2C(C)=O (stereo unspecified) .
n

Outcome? C[C@@]12CC[C@H]3[C@@H]4CCC(=O)N[C@@]4(C)CC[C@@H]3[C@@]1(C)CC[C@H](OC(=O)Cc1ccc(N(CCCl)CCCl)cc1)C2
n

Could you please tell me the result logged for Nc1ncnc2c1ncn2COC/C=C/I in this assay?
n

GET /call?item= Brc1cccc(/C=N/C23CC4CC(CC(C4)C2)C3)c1 returns the recorded outcome of this test.
n

// return assay outcome for OC12c3ccccc3C1CCCCC2N1CCCC1 (stereo unspecified)
n

For CC(C)(C)c1cc(Oc2ccc(C#N)c(C#N)c2)cc(C(C)(C)C)c1 , which call appears in the assay record?
n

# outcome recorded in this test, key = CC(=O)OCC1OC(O[C@@H]2C[C@H]3C(C)(C)[C@H](OC(C)=O)CC[C@]3(C)[C@H]3CC[C@]4(C)C(=CC[C@H]4[C@@H](C)C[C@@H](O)[C@H](O)C(C)(C)O)[C@@]32C)C(O)C(O)C1O (stereo partly specified)
n

Which outcome was entered for the molecule Cc1c2ccccc2c(C)n2c1nc1cc3ccccc3cc12 in this test?
n

Lab log entry: C/C(=N\NC(N)=O)C(CN1CCCCC1)C(c1ccccc1)c1c(O)c2ccccc2oc1=O (stereo unspecified) — outcome as called in the assay?
n

I'd appreciate the recorded outcome for NC(=O)c1ncn(C2OC(CO)C(O)C2O)c1NC(=S)NC(=O)c1ccccc1 (stereo unspecified) from this test.
n

Recorded test call requested for CC(=O)OC1C(COC(N)=O)OC(n2c(-c3ccc(C)cc3)cc(-c3ccccc3)c(C#N)c2=O)C(OC(C)=O)C1OC(C)=O (stereo unspecified)
n

Tell me the assay call for CC1=C[C@@H](C)C[C@]2(C)CC[C@H](O2)[C@]23CC[C@](C)(C[C@H](O2)[C@@H]2O[C@@](C)(CC2=O)[C@@H](O)[C@H]2CC[C@@]4(CCC[C@@H](O4)[C@H](C)C(=O)O[C@H]4C[C@H]([C@]5(O)OCC[C@H](C)[C@@H]5O)O[C@H]4C=C1)O2)O3 please.
y

Tell me the assay call for c1ccc2c(c1)CCCc1cc3ccccc3nc1-2 please.
n

Outcome? CCOC1NC(=O)Oc2ccccc21 (stereo unspecified)
n

Dear all, I need the recorded test outcome for COc1cc2c(cc1OC)CC(=O)Nc1cc(OC)c(OC)cc1CC2 , thank you.
n

What classification did CCOC(=O)c1sc2nc(SC)nc3c2c1NCN3C1CC1 end up with in this test?
n

// return assay outcome for C/C(=N\NC(=S)N1CCCCC1)c1nc2cccnc2[nH]1
n

Write down the call the test reported for this molecule. Item: [N-]=[N+]=CC(=O)C1(C(=O)C=[N+]=[N-])CC1
n

Short answer needed: outcome of this test for CC(C)(C)OC(=O)NC(Cc1ccc(OCc2ccccc2)cn1)C(=O)O (stereo unspecified) ?
n

Would you mind telling me which call this test gave Cn1c(N)nc2c(nc(OCc3ccccc3)n2C2OC(CO)C(O)C2O)c1=O (stereo unspecified) ?
n

Assay outcome for c1ccc2c(c1)c1c(n2CCOCCN2CCCCC2)CCCC1 : what was it?
n

Tell me the assay call for CCC(O)(Cc1ccc(OC)cc1)c1ccc(OC)cc1 (stereo unspecified) please.
n

Call for entry COC(=O)c1cc2c3c(ccc2[nH]1)N(C(=O)c1cc2cc(OC)c(OC)c(OC)c2[nH]1)CC3CCl (stereo unspecified) :
n

Would you mind telling me which call this test gave COc1cc(C2c3[nH]c4ccc(F)cc4c3C[C@H]3COC(=O)N23)cc(OC)c1O (stereo partly specified) ?
n

Could you kindly confirm the outcome this assay logged for CCN1C[C@]2(C)CC[C@H](OCc3ccccc3)C34C5C[C@@H]6CC[C@](O)(C(C[C@@H]32)C14)C5[C@H]6OCc1ccccc1 (stereo partly specified) ?
n

Value source: ChEMBL document CHEMBL1201862
